# assay method text: Dissolution test, puddle method, first solution pH 1.2, various chemicals (Test Example 5)
# Assay type: physicochemical
# run conditions: raw material of the chemical; dissolved for 5 minutes; first solution (pH 1.2) 500 ml; 50 rpm; a dose of each chemical
Class Satisfied: Dissolved amount, Control at least 0.2 µg/mL. Class Not satisfied: Dissolved amount, Control below 0.2 µg/mL.

compound	label class
CC(C(=O)O)c1ccc2c(c1)Cc1cccnc1O2 (stereo not shown)	Satisfied
CC(C(=O)O)c1cccc(C(=O)c2ccccc2)c1 (stereo not shown)	Satisfied
COc1ccc2c(c1)c(CC(=O)O)c(C)n2C(=O)c1ccc(Cl)cc1	Not satisfied
CC(C(=O)O)c1ccc(-c2ccccc2)c(F)c1 (stereo not shown)	Satisfied
CC(C(=O)O)c1cccc(Oc2ccccc2)c1 (stereo not shown)	Satisfied
CC(C(=O)O)c1ccc(CC2CCCC2=O)cc1 (stereo not shown)	Satisfied
CC(C)Cc1ccc(C(C)C(=O)O)cc1 (stereo not shown)	Not satisfied
